Origin of values: the NTF2 design screens of Basanta et al. (2020)

Measured protease stability score, listed per entry.
Assay: protease stability score; higher = more stable; yeast display proteolysis, trypsin and chymotrypsin;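 also: relative to predicted unfolded state with 0 unfolded-like and 1 meaning tenfold more protease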
When you answer, write just the number.

// below: answered sequences
| chain | protease stability score |
| --- | --- |
| SDEYRRNHDLARDYVELFRTGNEEHLYELADPNTMLHIGEFQSHGREHVYEWLEKIHRHWGWENVEFRLESMQVQGDYATIHGLHKFNGRFIRMDHIIVVINGRMESIRVEIR | 0.397 |
| REEDEIAENLFRLWIKSFLTGDFNTLRKLMDPHVRIHINGQEIHGREDFVRLLWEEFRRLGAKFHIEIKHLDVQGDKVFSEGTLRIEQGNKKDSKSVLIELIVVDGVITEIRMDVR | 2.25 |

Proceed to the following item.
Q) What protease stability score value was documented for this sequence, DEDKESLTRFWRMWVELNQTGDEDSLLKMFDPHVKIDINGRDLHGRELFAEEHKKFREEMGIDHFEFEIHRFEVQGDKANLDAKVTIRIGDKFHQLDLHIILHKVNGRWVLHSVKIR ?
A) 1.22

###

Each entry below carries its reported protease stability score.
Assay: protease stability score; higher = more stable; yeast display proteolysis, trypsin and chymotrypsin;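 also: relative to predicted unfolded state with 0 unfolded-like and 1 meaning tenfold more protease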
A bare number is all that is needed in reply.

| chain | observed_result |
| --- | --- |
| SEDEKHSEHAIHLIEHSMHTGDEKTLRDNIDPHVRVHINGRDVIGRELWMEILRRDLEELGVERVDFKTHHVEVFNGRMNIDGILTQGDKRVKVQIHYTKINGRWILEELIIR | 0.841 |

Q) I have this sequence here, DEEEEMSKELAELLVKAFVTGDWEEMTSMADPRTRTDVNGKDLHGWDESLRVIEELLRKMGIKHSNIHTVRVQGNWIHIDIRVIVGDKYHEVEIRVLVVNGRLKYLEYRIK , and I need its recorded protease stability score.
A) 1.98

Q) Any idea what protease stability score was measured for SQDERDVKKFVDLYERTVETGNEEDMERLMDPHVRMEVGDKHEHGRHIVIRVLHELGADHVDIHHVNVQGEKIHIHGRLHVDGRIHHVEIHAKKVNGKWIMKLVIIR ?
A) 1.11

###

Experiment: protease stability score; higher = more stable; yeast display proteolysis, trypsin and chymotrypsin;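 also: relative to predicted unfolded state with 0 unfolded-like and 1 meaning tenfold more protease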
Catalogue of sequences with associated protease stability score
Give the figure by itself; no unit, no explanation.

Here is how some sequences turned out for protease stability score.
| chain | protease stability score |
| --- | --- |
| DEEEKRAREQYKLMFHNLQTGDEDTLKKLMDPNVRLDINGQEHHGRENVVKFWEHFIRKLGVKHMEWKDRDVEITENHVNFHGYIIIDIDGQERRLHTIIILRKVDGKWVVESLVFK | 2.23 |
| DEIVEMVREIAEEILHAELTGDEDKFKKLIDPNVRLQINGKDIHGMEDFRKWNEEWRIHHIEVKHLDIFEGHSRMDGKLDGTINGQRRNLKTILEIKVVDGRVKEITIHVL | 1.12 |
| TEMEEWSRLAIEIWEEVVRTGNEHDMARLLDPNTRLIVGEKEYHGMETVMHLLERIKNLVLRRFHIEHVRLQGDKVEIDARSVHHVNGRDIETTLKIISFKFNGRWTIRQESII | 0.614 |
| DEVEHLLELMFRLIIETIRTGDEKLLEHLVDPNAKSLIDGRDYHGREMARHWHNRVDHLNDVHINDRKVQGEKIELDVRVDGRVGDKRIDERVHIIAFKINGQWIIHKMEVR | 0.991 |
| DELEKLLEHMLRLMNELLETGDWDWIMSLADPHTKFRLDINGVEHIDHGWEFLHKRIEELGADHREFRVRDIHTQGDKVHSEGEHLIRVNGKEIHIDVRIILLVVNGKVKEIEVRFK | 1.7 |

Field: next sequence
Q) Item DEHKDLAHKAITNFIEWTETGDFEMFLKLFDPNMRLRVDGQHHHGWHDVFRVFREMGYEIKSVKMDDVEIQGEKITVDLRVHVDINGQHEDIKTRYFFSKYDGKWIIEQIQVV has what recorded protease stability score?
A) -0.276
